Tested on: NCI-H322M
PROCEDURE TEXT: Growth inhibition of human NCI-H322M cells assessed as cell growth at 10^-8 M incubated for 48 hrs by sulforhodamine B assay relative to control
Format: functional
CONDITIONS USED: read-out: Activity
Reported growth at 0.01 µM values for the following compounds.
RECORDED METRIC: growth at 0.01 µM (%)

[[record]]
smiles_string = "C#C[C@@]1(O)[C@@H](CO)O[C@@H](n2ccc3c(N)ncnc32)[C@@H]1O"
tested_target = "NCI-H322M"
recorded_metric = "growth at 0.01 µM"
test_result = 99

[[record]]
smiles_string = "C#C[C@@]1(O)[C@@H](CO)O[C@@H](n2cc(F)c3c(N)ncnc32)[C@@H]1O"
tested_target = "NCI-H322M"
recorded_metric = "growth at 0.01 µM"
test_result = 93


====

Test system: PC-3
PROCEDURE TEXT: Growth inhibition of human PC3 cells assessed as cell growth at 10^-5 M incubated for 48 hrs by sulforhodamine B assay relative to control
Type: functional
CONDITIONS USED: PC-3, 48 h, read-out: Activity
Let's look at some molecules and their measured growth at 10 µM.
RECORDED METRIC: growth at 10 µM

[[record]]
smiles_string = "C#C[C@@]1(O)[C@@H](CO)O[C@@H](n2cc(I)c3c(N)ncnc32)[C@@H]1O"
recorded_metric = "growth at 10 µM"
test_result = "2%"

[[record]]
smiles_string = "C#C[C@@]1(O)[C@@H](CO)O[C@@H](n2ccc3c(N)ncnc32)[C@@H]1O"
recorded_metric = "growth at 10 µM"
test_result = "-37%"

[[record]]
smiles_string = "C#C[C@@]1(O)[C@@H](CO)O[C@@H](n2cc(F)c3c(N)ncnc32)[C@@H]1O"
recorded_metric = "growth at 10 µM"
test_result = "-10%"

[[record]]
smiles_string = "C#C[C@@]1(O)[C@@H](CO)O[C@@H](n2cc(Br)c3c(N)ncnc32)[C@@H]1O"
recorded_metric = "growth at 10 µM"
test_result = "3%"


====

Documented TGI across a set of molecules
Test system: OVCAR-3
PROCEDURE TEXT: Cytotoxicity against human OVCAR3 cells after 48 hrs by SRB assay
Type: functional
CONDITIONS USED: OVCAR-3, 48 h, read-out: TGI
RECORDED METRIC: TGI

[[record]]
smiles_string = "C#C[C@@]1(O)[C@@H](CO)O[C@@H](n2cc(F)c3c(N)ncnc32)[C@@H]1O"
test_result = "> 100 µM"

[[record]]
smiles_string = "C#C[C@@]1(O)[C@@H](CO)O[C@@H](n2cc(Cl)c3c(N)ncnc32)[C@@H]1O"
test_result = "1.6 to 2.01 µM"

[[record]]
smiles_string = "C#C[C@@]1(O)[C@@H](CO)O[C@@H](n2ccc3c(N)ncnc32)[C@@H]1O"
test_result = "12 µM"

[[record]]
smiles_string = "C#C[C@@]1(O)[C@@H](CO)O[C@@H](n2cc(Br)c3c(N)ncnc32)[C@@H]1O"
test_result = "3.01 to 4.71 µM"


====

System: EKVX
PROCEDURE TEXT: Growth inhibition of human EKVX cells assessed as cell growth at 10^-7 M incubated for 48 hrs by sulforhodamine B assay relative to control
Format: functional
CONDITIONS USED: read-out: Activity
RECORDED METRIC: growth at 0.1 µM (%)

[[record]]
smiles_string = "C#C[C@@]1(O)[C@@H](CO)O[C@@H](n2ccc3c(N)ncnc32)[C@@H]1O"
test_result = 92

[[record]]
smiles_string = "C#C[C@@]1(O)[C@@H](CO)O[C@@H](n2cc(F)c3c(N)ncnc32)[C@@H]1O"
test_result = 86


====

Reported growth at 0.01 µM values are given for each entry in this list.
Tested on: NCI/ADR-RES
PROCEDURE TEXT: Growth inhibition of human NCI/ADR-RES cells assessed as cell growth at 10^-8 M incubated for 48 hrs by sulforhodamine B assay relative to control
Assay type: functional
CONDITIONS USED: read-out: Activity
RECORDED METRIC: growth at 0.01 µM (%)

[[record]]
smiles_string = "C#C[C@@]1(O)[C@@H](CO)O[C@@H](n2ccc3c(N)ncnc32)[C@@H]1O"
test_result = 97

[[record]]
smiles_string = "C#C[C@@]1(O)[C@@H](CO)O[C@@H](n2cc(F)c3c(N)ncnc32)[C@@H]1O"
test_result = 100


====

System: A549
PROCEDURE TEXT: Growth inhibition of human A549/ATCC cells assessed as cell growth at 10^-7 M incubated for 48 hrs by sulforhodamine B assay relative to control
Format: functional
CONDITIONS USED: A549, 48 h, read-out: Activity
Examples of molecules with documented growth at 0.1 µM follow.
RECORDED METRIC: growth at 0.1 µM (%)

[[record]]
smiles_string = "C#C[C@@]1(O)[C@@H](CO)O[C@@H](n2ccc3c(N)ncnc32)[C@@H]1O"
test_result = 107

[[record]]
smiles_string = "C#C[C@@]1(O)[C@@H](CO)O[C@@H](n2cc(F)c3c(N)ncnc32)[C@@H]1O"
test_result = 92


====

Reported growth at 1 µM values are given for each entry in this list.
Tested on: 786-0
PROCEDURE TEXT: Growth inhibition of human 786-0 cells assessed as cell growth at 10^-6 M incubated for 48 hrs by sulforhodamine B assay relative to control
Format: functional
CONDITIONS USED: 786-0, 48 h, read-out: Activity
RECORDED METRIC: growth at 1 µM (%)

[[record]]
smiles_string = "C#C[C@@]1(O)[C@@H](CO)O[C@@H](n2cc(F)c3c(N)ncnc32)[C@@H]1O"
test_result = 43

[[record]]
smiles_string = "C#C[C@@]1(O)[C@@H](CO)O[C@@H](n2ccc3c(N)ncnc32)[C@@H]1O"
test_result = 68


====

System: HCT-15
PROCEDURE TEXT: Cytotoxicity against human HCT15 cells after 48 hrs by SRB assay
Assay type: functional
CONDITIONS USED: HCT-15, 48 h, read-out: TGI
Measured TGI by item
RECORDED METRIC: TGI (µM)

[[record]]
smiles_string = "C#C[C@@]1(O)[C@@H](CO)O[C@@H](n2cc(F)c3c(N)ncnc32)[C@@H]1O"
reported_relation = "="
test_result = 3.19

[[record]]
smiles_string = "C#C[C@@]1(O)[C@@H](CO)O[C@@H](n2cc(Cl)c3c(N)ncnc32)[C@@H]1O"
reported_relation = ">"
test_result = 100

[[record]]
smiles_string = "C#C[C@@]1(O)[C@@H](CO)O[C@@H](n2cc(Br)c3c(N)ncnc32)[C@@H]1O"
reported_relation = ">"
test_result = 100

[[record]]
smiles_string = "C#C[C@@]1(O)[C@@H](CO)O[C@@H](n2ccc3c(N)ncnc32)[C@@H]1O"
reported_relation = "="
test_result = 4.62

[[record]]
smiles_string = "C#C[C@@]1(O)[C@@H](CO)O[C@@H](n2cc(I)c3c(N)ncnc32)[C@@H]1O"
reported_relation = ">"
test_result = 100


====

Tested on: SW-620
PROCEDURE TEXT: Cytotoxicity against human SW620 cells after 48 hrs by SRB assay
Type: functional
CONDITIONS USED: SW-620, 48 h, read-out: TGI
RECORDED METRIC: TGI

[[record]]
smiles_string = "C#C[C@@]1(O)[C@@H](CO)O[C@@H](n2cc(I)c3c(N)ncnc32)[C@@H]1O"
recorded_metric = "TGI"
test_result = "> 100 µM"

[[record]]
smiles_string = "C#C[C@@]1(O)[C@@H](CO)O[C@@H](n2cc(Br)c3c(N)ncnc32)[C@@H]1O"
recorded_metric = "TGI"
test_result = "> 100 µM"

[[record]]
smiles_string = "C#C[C@@]1(O)[C@@H](CO)O[C@@H](n2cc(F)c3c(N)ncnc32)[C@@H]1O"
recorded_metric = "TGI"
test_result = "2.9 µM"

[[record]]
smiles_string = "C#C[C@@]1(O)[C@@H](CO)O[C@@H](n2cc(Cl)c3c(N)ncnc32)[C@@H]1O"
recorded_metric = "TGI"
test_result = "> 100 µM"

[[record]]
smiles_string = "C#C[C@@]1(O)[C@@H](CO)O[C@@H](n2ccc3c(N)ncnc32)[C@@H]1O"
recorded_metric = "TGI"
test_result = "12.7 µM"


====

Tested on: MDA-MB-231
PROCEDURE TEXT: Cytotoxicity against human MDA-MB-231 cells after 48 hrs by SRB assay
Format: functional
CONDITIONS USED: MDA-MB-231, 48 h, read-out: pTGI (converted)
Measured TGI, listed per entry.
RECORDED METRIC: TGI (µM)

[[record]]
smiles_string = "C#C[C@@]1(O)[C@@H](CO)O[C@@H](n2ccc3c(N)ncnc32)[C@@H]1O"
recorded_metric = "TGI"
reported_relation = "="
test_result = 5.89

[[record]]
smiles_string = "C#C[C@@]1(O)[C@@H](CO)O[C@@H](n2cc(F)c3c(N)ncnc32)[C@@H]1O"
recorded_metric = "TGI"
reported_relation = "="
test_result = 2.95

[[record]]
smiles_string = "C#C[C@@]1(O)[C@@H](CO)O[C@@H](n2cc(I)c3c(N)ncnc32)[C@@H]1O"
recorded_metric = "TGI"
reported_relation = ">"
test_result = 100

[[record]]
smiles_string = "C#C[C@@]1(O)[C@@H](CO)O[C@@H](n2cc(Br)c3c(N)ncnc32)[C@@H]1O"
recorded_metric = "TGI"
reported_relation = ">"
test_result = 100


These entries and their values trace back to ChEMBL document CHEMBL4270599.
